Listed here: items and their measured Maximum mean fluorescence intensity.
# target entity: T1, monkey MSLN full-length protein (NCBI: XP_028696439.1) expressed on HEK293T-monkey MSLN cells (monkey)
# T1 construct: Whole encoded precursor
# T1 chain: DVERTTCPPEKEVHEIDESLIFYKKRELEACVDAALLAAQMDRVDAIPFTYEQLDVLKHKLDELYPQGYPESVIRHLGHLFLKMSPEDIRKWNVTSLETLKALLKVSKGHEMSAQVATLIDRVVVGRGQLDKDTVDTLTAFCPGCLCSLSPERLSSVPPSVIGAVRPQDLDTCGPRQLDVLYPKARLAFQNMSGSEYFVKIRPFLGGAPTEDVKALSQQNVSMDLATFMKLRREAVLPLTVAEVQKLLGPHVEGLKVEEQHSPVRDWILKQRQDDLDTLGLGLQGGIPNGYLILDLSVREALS
# experiment notes: FACS on HEK293T-monkey MSLN cells
recorded endpoint: Maximum mean fluorescence intensity

1. S009-F5-9.16 (antibody, human IgG1, kappa, V domains shown, human-murine chimeric antibody, human IgG1/kappa constant regions) VH: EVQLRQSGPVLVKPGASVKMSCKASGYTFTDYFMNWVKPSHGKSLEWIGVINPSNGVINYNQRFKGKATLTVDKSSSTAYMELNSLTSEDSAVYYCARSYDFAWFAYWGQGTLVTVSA VL: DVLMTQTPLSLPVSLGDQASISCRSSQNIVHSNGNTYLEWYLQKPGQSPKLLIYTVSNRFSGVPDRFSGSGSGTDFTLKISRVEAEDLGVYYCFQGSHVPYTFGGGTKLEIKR; 365
2. S009-F6-76.1 (antibody, human IgG1, kappa, V domains shown, human-murine chimeric antibody, human IgG1/kappa constant regions) VH: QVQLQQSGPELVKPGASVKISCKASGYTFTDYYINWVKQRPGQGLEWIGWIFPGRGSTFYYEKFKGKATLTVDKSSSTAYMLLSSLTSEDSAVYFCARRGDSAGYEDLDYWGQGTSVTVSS VL: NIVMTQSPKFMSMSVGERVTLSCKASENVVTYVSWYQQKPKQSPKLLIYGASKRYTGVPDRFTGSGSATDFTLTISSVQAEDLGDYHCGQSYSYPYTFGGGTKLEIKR; 131
